Ki reference
# target: KOR (Cavia porcellus, UniProt P41144)
# Construct: from tissue
# Sequence (P41144 whole entry): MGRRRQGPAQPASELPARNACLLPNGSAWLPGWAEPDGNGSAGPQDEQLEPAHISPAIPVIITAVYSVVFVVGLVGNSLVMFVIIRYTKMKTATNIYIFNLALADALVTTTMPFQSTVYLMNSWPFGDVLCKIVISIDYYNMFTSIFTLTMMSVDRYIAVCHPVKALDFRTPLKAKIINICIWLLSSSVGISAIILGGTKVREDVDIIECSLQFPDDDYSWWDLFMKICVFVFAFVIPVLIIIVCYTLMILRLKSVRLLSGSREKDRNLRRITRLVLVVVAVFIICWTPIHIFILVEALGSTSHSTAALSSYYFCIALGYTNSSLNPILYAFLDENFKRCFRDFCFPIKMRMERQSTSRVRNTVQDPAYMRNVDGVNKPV
# method notes: Opioid receptor binding, KOR, guinea pig brain membranes
# stated conditions: Table 2-6, guinea pig brain membranes; read-out: Binding Ki KOR
Give a bare numeral; the unit nM is implied.

Before answering, review these 2 worked examples.
- line notation: "CO[C@@]12CC[C@H](N[C@H](C(=O)OC(C)(C)C)C(C)C)[C@@H]3Oc4c(O)ccc5c4[C@@]31CCN(CC1CC1)[C@@H]2C5"
  measurement unit: "nM"
  Ki: 3.13
- line notation: "CO[C@@]12CC[C@@H](N[C@@H](Cc3ccccc3)C(=O)O)[C@@H]3Oc4c(O)ccc5c4[C@@]31CCN(CC1CC1)[C@@H]2C5"
  measurement unit: "nM"
  Ki: 8.42

Name the value of Ki reported for CO[C@@]12CC[C@@H](NCC(=O)OC(C)(C)C)[C@@H]3Oc4c(O)ccc5c4[C@@]31CCN(CC1CC1)[C@@H]2C5 when tested on KOR (Cavia porcellus, UniProt P41144).
8.36

src = patent US20170217976A1
